- SYSTEM_TESTED: PRMT5/MEP50 complex (Homo sapiens (Human), UniProt O14744)
- Sequence (O14744 2-637): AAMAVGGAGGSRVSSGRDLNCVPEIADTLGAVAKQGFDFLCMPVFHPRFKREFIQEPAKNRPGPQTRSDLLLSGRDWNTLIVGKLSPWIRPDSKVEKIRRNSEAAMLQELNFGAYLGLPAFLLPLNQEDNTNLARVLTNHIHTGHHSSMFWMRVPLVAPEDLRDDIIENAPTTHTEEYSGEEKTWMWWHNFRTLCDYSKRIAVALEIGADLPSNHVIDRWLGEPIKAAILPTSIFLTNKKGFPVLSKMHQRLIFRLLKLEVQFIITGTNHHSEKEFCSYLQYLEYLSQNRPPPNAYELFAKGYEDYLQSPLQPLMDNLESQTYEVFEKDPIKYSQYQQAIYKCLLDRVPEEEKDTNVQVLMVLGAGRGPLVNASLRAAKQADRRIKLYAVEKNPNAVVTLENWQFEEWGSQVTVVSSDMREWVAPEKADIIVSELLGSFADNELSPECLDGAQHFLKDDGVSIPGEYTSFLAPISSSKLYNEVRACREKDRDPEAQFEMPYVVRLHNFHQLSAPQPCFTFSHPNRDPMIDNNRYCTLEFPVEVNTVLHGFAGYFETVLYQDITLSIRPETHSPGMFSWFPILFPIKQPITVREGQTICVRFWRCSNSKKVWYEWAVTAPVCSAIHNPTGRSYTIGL
- Sequence (Q9BQA1 2-342 partner): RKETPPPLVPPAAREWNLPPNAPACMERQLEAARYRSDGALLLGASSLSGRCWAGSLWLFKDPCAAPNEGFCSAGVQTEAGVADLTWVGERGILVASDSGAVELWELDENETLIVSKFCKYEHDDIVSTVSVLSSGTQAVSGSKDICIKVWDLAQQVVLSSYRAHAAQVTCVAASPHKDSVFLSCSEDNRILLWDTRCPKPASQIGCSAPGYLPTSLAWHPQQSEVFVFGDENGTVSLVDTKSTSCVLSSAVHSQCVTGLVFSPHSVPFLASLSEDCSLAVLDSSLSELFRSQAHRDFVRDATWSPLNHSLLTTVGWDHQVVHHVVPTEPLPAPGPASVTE
- EXPERIMENT: PRMT5:MEP50 FlashPlate Assay (histone H4 peptide substrate, plus and minus MTA)
- Format: biochemical
- REPORTED_CONDITIONS: IC50 + 2 μM MTA (nM), in the presence of 2 μM MTA
QUANTITY_MEASURED: IC50 (nM)

COc1cccc(-c2c(-c3ccc4c(=O)[nH]nc(CN)c4c3)cnn2C)c1 :: 3.3

1. NCc1n[nH]c(=O)c2ccc(-c3cncc(OC(F)(F)F)c3)cc12
2. NCc1n[nH]c(=O)c2ccc(-c3cnc4c(F)cc(Cl)cn34)cc12
3. NCc1n[nH]c(=O)c2ccc(-c3cnc4ccc(Cl)cn34)cc12
4. CCc1ccc(-c2ccc3c(=O)[nH]nc(CN)c3c2)cn1
5. NCc1n[nH]c(=O)c2ccc(-c3cncc4ccccc34)cc12
Data request: Ordering criterion: IC50; begin with the maximum. Ranked list of labels, please, in the requested order.
Data returned: 4, 2, 1, 3, 5
(4: 25000 nM, 2: 1300 nM, 1: 590 nM, 3: 110 nM, 5: 64 nM)

Data origin: patent US11479551B2
